- Protocol Summary: in vivo
- Run Conditions: Wister, rat, po, 50 mg/kg, Food-derived glutathione level in low-molecular-weight fraction of blood from inferior vena cava, 60 min after ingestion
Property Measured: concentration at 60 min

## Input # input molecule: N[C@@H](CCC(=O)N[C@@H](CS)C(=O)NCC(=O)O)C(=O)O ; wanted: its concentration at 60 min
## Output < 100 nM

* * *

- Protocol Summary: in vivo
- Run Conditions: Wister, rat, po, 50 mg/kg, Food-derived glutathione level in low-molecular-weight fraction of blood from hepatic portal vein, 60 min after ingestion
Property Measured: concentration at 60 min

## Input Item under review: N[C@@H](CCC(=O)N[C@@H](CS)C(=O)NCC(=O)O)C(=O)O [glutathione, γ-L-glutamyl-L-cysteinyl-glycine] . Reported concentration at 60 min?
## Output ~400 nM
